# tested.target: T1, human CCR8 (human, UniProt P51685 1-355)
# T1 construct: whole, on cells; also called hCCR8
# T1 sequence (P51685 whole entry): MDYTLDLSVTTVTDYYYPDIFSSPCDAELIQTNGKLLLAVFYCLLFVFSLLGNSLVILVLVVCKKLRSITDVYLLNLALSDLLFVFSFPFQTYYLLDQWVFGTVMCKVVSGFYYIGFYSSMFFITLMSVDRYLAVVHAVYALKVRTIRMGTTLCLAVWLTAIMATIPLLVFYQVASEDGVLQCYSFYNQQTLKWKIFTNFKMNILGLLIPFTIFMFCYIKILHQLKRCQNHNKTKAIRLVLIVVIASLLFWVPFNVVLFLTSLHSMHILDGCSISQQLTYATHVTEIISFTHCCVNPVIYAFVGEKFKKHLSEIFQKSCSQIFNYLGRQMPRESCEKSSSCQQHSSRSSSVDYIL
# measurement.description: FACS, competition with AF647-human CCL1 on CHO-K1-human CCR8 cells
reported.endpoint: IC50 (nM)
Dear colleague, please return just the value in nM, with no unit written.

Problem: Give recorded IC50. Hu149-7 (antibody, V domains shown, humanized IgG) VH: EVQLVESGGGLVQPGGSLKLSCAASGFTFNTYAMNWVRQASGKGLEWVGRIRSKSNFYATAYAASVKGRFTISRDDSKNTAYLQMNSLKTEDTAVYYCVRGRDYGSSYAMDYWGQGTLVTVSS VL: DIVMTQSPLSLPVTPGEPASISCRSSKSLLHSNANTYLYWYLQKPGQSPQLLIYRMSNLASGVPDRFSGSGSGTDFTLKISRVEAEDVGVYYCMQHLEYPLTFGGGTKVELK
Result: 37.8

# credit: patent US20250034266A1
